Target: E3 ubiquitin-protein ligase XIAP (Homo sapiens) (UniProt P98170)
Sequence (P98170 whole entry, looked up): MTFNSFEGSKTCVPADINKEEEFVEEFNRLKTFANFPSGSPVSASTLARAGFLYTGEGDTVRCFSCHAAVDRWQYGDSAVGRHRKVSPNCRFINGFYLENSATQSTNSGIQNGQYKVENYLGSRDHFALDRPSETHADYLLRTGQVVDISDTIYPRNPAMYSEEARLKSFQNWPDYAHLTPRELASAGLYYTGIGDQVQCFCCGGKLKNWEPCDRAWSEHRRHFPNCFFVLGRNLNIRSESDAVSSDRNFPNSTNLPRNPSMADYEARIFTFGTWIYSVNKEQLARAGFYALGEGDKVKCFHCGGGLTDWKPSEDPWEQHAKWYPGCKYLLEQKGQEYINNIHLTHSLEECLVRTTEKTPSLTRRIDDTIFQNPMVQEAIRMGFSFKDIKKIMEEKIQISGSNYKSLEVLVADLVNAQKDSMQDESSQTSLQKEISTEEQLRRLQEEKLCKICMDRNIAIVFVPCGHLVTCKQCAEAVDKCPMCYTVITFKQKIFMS
Experiment: XIAP binders, primary screen, biophysical, small-molecule microarray, fluorescence 635 nm (AID 1181)
Details: small-molecule microarray binding, higher = more signal
Label Fulfilled when composite z-score is at or above -0.03; otherwise label Not fulfilled.

[[record]]
compound = "COCCOC(=O)N1C(=O)[C@@]2(c3cc(C#CCNC(N)=O)ccc31)[C@H](c1ccc(OCCO)cc1)N1[C@H](c3ccccc3)[C@H](c3ccccc3)OC(=O)[C@H]1[C@@H]2C(=O)N1CCc2cc(OC)c(OC)cc2C1"
discretelabel = "Not fulfilled"

[[record]]
compound = "CN(C)CCCCNC(=O)[C@H]1C[C@H]2C(=O)N[C@@H](Cc3ccccc3)C(=O)N2[C@H]1c1ccc(O)cc1"
discretelabel = "Fulfilled"

[[record]]
compound = "CC(C)c1ccc(NN2C(C(O)c3cccc(O)c3)C=CC3C(=O)N(c4ccccc4)C(=O)C32)cc1 (stereo not drawn)"
discretelabel = "Fulfilled"

[[record]]
compound = "COCCOC(=O)N1C(=O)[C@@]2(c3cc(C#CCCO)ccc31)[C@H](c1ccc(O)cc1)N1[C@H](c3ccccc3)[C@H](c3ccccc3)OC(=O)[C@H]1[C@@H]2C(N)=O"
discretelabel = "Fulfilled"

[[record]]
compound = "O=C1C2C=CC(C(O)c3ccc(F)cc3)N(Nc3ccccc3)C2C(=O)N1c1ccccc1 (stereo not drawn)"
discretelabel = "Not fulfilled"

[[record]]
compound = "O=C1O[C@@H](c2ccccc2)[C@@H](c2ccccc2)N2[C@@H](c3ccc(O)cc3)[C@]3(C(=O)Nc4ccc(C#CC5(O)CCCCCC5)cc43)[C@@H](C(=O)N3CCCCCCC3)[C@H]12"
discretelabel = "Fulfilled"

[[record]]
compound = "CC(=CC1CCCCC1)[C@@H](NC(=O)c1ccc(C(F)(F)F)cc1)c1ccc(-c2ccccc2)cc1"
discretelabel = "Not fulfilled"

[[record]]
compound = "COCCCNC(=O)[C@@]1(CCC(=O)OC(C)(C)C)N=C(c2ccc(OCCCO)cc2)O[C@H]1c1ccccc1CN=[N+]=[N-]"
discretelabel = "Not fulfilled"

[[record]]
compound = "O=C1OCCC=C[C@H]2OC34C=CCN(Cc5ccccc5)C(=O)[C@H]3N(CCCCCO)C(=O)[C@@H]4C12 (stereo partly drawn)"
discretelabel = "Fulfilled"

[[record]]
compound = "CC(C)C[C@@H]1NC(=O)[C@H]2C[C@@H](C(=O)NCCCCCCNC(=O)CS)[C@@H](c3cccc(OCCO)c3)N2C1=O"
discretelabel = "Fulfilled"


Problem: hey, is composite z-score for this one >= -0.03? COC(=O)[C@@]1(Cc2ccc(F)cc2)[C@H]2c3cc(C(=O)N4CCCC4)n(Cc4cccc5ccccc45)c3C[C@H]2CN1C(=O)c1ccccc1
Result: Fulfilled

Problem: Tell me whether composite z-score is at least -0.03 here: COc1ccc(C#Cc2ccc3c(c2)[C@]2(C(=O)N3)[C@H](c3ccc(O)cc3)N3[C@H](c4ccccc4)[C@H](c4ccccc4)OC(=O)[C@H]3[C@@H]2C(=O)NC[C@H](O)c2ccccc2)cc1
Result: Not fulfilled

Problem: Confirm if composite z-score reported for the compound COc1ccc([Si](C)(C)[C@H]2[C@H](CCn3cc(CCO)nn3)O[C@@]3(C(=O)N(Cc4ccc(N5CCOC5=O)cc4)c4ccccc43)[C@@H]2C)cc1 is -0.03 or above.
Result: Fulfilled
